Species: Homo sapiens
RUN DESCRIPTION: In vitro for its inhibitory activity against platelet aggregation induced by ADP
Type: functional
PARAMETER: pIC50
Scale explanation: pIC50 corresponds to minus log10 of a concentration expressed in moles per litre.

N=C(N)c1ccc(C(=O)NCCC(=O)N[C@@H](CC(=O)O)C(=O)N[C@@H](Cc2ccc(O)cc2)C(=O)O)cc1
5.92
N=C(N)Nc1ccc(C(=O)NCC(=O)N[C@@H](CC(=O)O)C(=O)N[C@H](Cc2c[nH]c3ccccc23)C(=O)O)cc1
6.22

Continue with the next compound.
Query string: Consider the compound shown here: "N=C(N)Nc1ccc(C(=O)NCCC(=O)N[C@@H](CC(=O)O)C(=O)N[C@H](Cc2ccc3ccccc3c2)C(=O)O)cc1" What is its recorded pIC50?
Result string: 6.49

====

Species on record: Homo sapiens
RUN DESCRIPTION: In vitro for its inhibitory activity against platelet aggregation induced by ADP
Format: functional
Listed here: items and their measured pIC50.
Scale explanation: pIC50 corresponds to minus log10 of a concentration expressed in moles per litre.

Study these solved cases before continuing.
N=C(N)c1ccc(C(=O)NCCC(=O)N[C@@H](CC(=O)O)C(=O)N[C@H](Cc2c[nH]c3ccccc23)C(=O)O)cc1 (single isomer, unassigned)
7.59
N=C(N)c1ccc(C(=O)NCCC(=O)N[C@@H](CC(=O)O)C(=O)NC(Cc2ccc(O)cc2)C(=O)O)cc1 (single isomer, unassigned)
7.70

Query string: Consider the molecule shown here: "N=C(N)Nc1ccc(C(=O)NCCC(=O)N[C@@H](CC(=O)O)C(=O)N[C@@H](C(=O)O)c2ccccc2)cc1" What is its recorded pIC50?
Result string: 5.54

====

Species on record: Homo sapiens
RUN DESCRIPTION: In vitro for its inhibitory activity against platelet aggregation induced by ADP
Type: functional
pIC50: −log10 of the molar value.
Listed here: items and their measured pIC50.

N=C(N)Nc1ccc(C(=O)NCCCC(=O)N[C@@H](CC(=O)O)C(=O)N[C@H](Cc2c[nH]c3ccccc23)C(=O)O)cc1
< 4.30
N=C(N)Nc1ccc(C(=O)NC(Cc2ccc(O)cc2)C(=O)N[C@@H](CC(=O)O)C(=O)N[C@H](Cc2c[nH]c3ccccc23)C(=O)O)cc1 (stereo partly drawn)
< 4.30

Query string: Consider the compound shown here: "N=C(N)c1ccc(C(=O)NCCCC(=O)N[C@@H](CC(=O)O)C(=O)N[C@H](Cc2c[nH]c3ccccc23)C(=O)O)cc1" What is its recorded pIC50?
Result string: < 4.30
